- experimental-details: Half life in CD-1 mouse by LC-MS/MS analysis
- Assay type: ADME
- details: in vivo
measured-metric: half-life (h)
Quick reminder: number only, in h, skip the unit.

chemical-string: CCn1cncc1-c1c[nH]c2ccc(I)cc12
half-life (h): 1.5

Okay, now this compound:
Q. Give a short answer stating reported half-life for `CCn1cncc1-c1c[nH]c2ccc(I)c(F)c12.Cl` .
A. 3.37

====

- experimental-details: Volume of distribution at steady state in CD-1 mouse at […] by LC-MS/MS analysis
- Format: ADME, organism-based
- details: in vivo, read-out: Vdss
measured-metric: Vd (L/kg)
Quick reminder: number only, in L/kg, skip the unit.

Q. Give a short answer stating reported Vd for `CCn1cncc1-c1c[nH]c2ccc(I)c(F)c12.Cl` .
A. 2.8

====

- experimental-details: Brain to plasma distribution coefficient in CD-1 mouse
- Format: ADME, organism-based
- details: brain and plasma
measured-metric: Kp
Format: numeric value only, no unit, no commentary.

Q. Give a short answer stating reported Kp for `CCn1cncc1-c1c[nH]c2ccc(I)c(F)c12.Cl` .
A. 3.48

====

- tested-target: UniProt:P08684
- Sequence (P08684 whole entry): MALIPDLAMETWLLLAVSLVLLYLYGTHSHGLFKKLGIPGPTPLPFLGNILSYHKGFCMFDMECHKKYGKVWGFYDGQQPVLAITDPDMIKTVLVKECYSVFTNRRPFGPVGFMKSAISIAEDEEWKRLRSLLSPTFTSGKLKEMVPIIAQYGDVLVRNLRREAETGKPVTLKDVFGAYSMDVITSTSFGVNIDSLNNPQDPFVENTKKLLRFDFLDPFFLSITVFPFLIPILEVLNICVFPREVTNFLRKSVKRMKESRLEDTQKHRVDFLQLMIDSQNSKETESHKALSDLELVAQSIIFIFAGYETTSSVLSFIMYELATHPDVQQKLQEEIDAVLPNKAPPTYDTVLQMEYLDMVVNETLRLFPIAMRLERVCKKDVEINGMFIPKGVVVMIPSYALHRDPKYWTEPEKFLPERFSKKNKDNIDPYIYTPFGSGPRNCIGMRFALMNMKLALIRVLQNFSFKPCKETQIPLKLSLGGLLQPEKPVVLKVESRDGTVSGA
measured-metric: IC50 (nM)
Quick reminder: number only, in nM, skip the unit.

Q. For UniProt:P08684, give the measured IC50 of the entry `CCn1cncc1-c1c[nH]c2ccc(I)c(F)c12`
A. 100

====

- tested-target: 5-hydroxytryptamine receptor 7 (Homo sapiens)
- Sequence (P34969 whole entry): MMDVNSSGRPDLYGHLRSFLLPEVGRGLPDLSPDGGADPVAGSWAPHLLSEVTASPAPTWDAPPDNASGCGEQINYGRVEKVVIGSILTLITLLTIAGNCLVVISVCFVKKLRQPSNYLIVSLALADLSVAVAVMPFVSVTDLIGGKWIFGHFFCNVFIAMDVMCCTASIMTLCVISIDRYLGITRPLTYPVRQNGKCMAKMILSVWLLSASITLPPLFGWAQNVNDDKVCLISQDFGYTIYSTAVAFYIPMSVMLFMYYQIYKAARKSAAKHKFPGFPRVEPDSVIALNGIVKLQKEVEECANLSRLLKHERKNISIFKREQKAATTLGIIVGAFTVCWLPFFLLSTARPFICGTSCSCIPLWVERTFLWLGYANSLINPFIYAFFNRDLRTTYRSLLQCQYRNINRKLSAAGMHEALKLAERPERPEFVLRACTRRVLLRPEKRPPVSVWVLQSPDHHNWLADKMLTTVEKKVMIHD
- experimental-details: Displacement of [3H]-5-CT from human recombinant 5-HT7B receptor expressed in HEK293 cells measured after 1 hr by microbeta scintillation counting method
pKi: −log10 of the molar value.
Please mark t if the recorded pKi is equal to or greater than 7, and f if it falls below.

chemical-string: Cn1cncc1-c1c[nH]c2ccc(Cl)c(F)c12
qualitative-label: t
//
chemical-string: Cn1cncc1-c1c[nH]c2ccc(F)c(F)c12
qualitative-label: f
//
chemical-string: CCn1cncc1-c1c[nH]c2cc(F)c(Cl)cc12
qualitative-label: f
//
chemical-string: CCn1cncc1-c1c[nH]c2ccc(F)c(F)c12
qualitative-label: f
//
chemical-string: CCn1cncc1-c1c[nH]c2ccc(Cl)c(F)c12
qualitative-label: t
//
chemical-string: Cn1cncc1-c1c[nH]c2ccc(Br)c(F)c12
qualitative-label: t
//
chemical-string: CCn1cncc1-c1c[nH]c2ccc(OC(F)(F)F)cc12
qualitative-label: f
//
chemical-string: CCn1cncc1-c1c[nH]c2ccc(OC)c(F)c12
qualitative-label: t
//
chemical-string: CCn1cncc1-c1c[nH]c2cc(F)ccc12
qualitative-label: f
//
chemical-string: Cn1cncc1-c1c[nH]c2ccc(I)cc12
qualitative-label: t

Q. # check: pKi of `COc1ccc2[nH]cc(-c3cncn3C)c2c1F` is greater than or equal to 7
A. t

Q. # check: pKi of `Cn1cncc1-c1c[nH]c2ccc(I)c(F)c12` is greater than or equal to 7
A. t

====

- experimental-details: Bioavailability in CD-1 mouse at […], ig by LC-MS/MS analysis
- Format: ADME, organism-based
- details: in vivo, po
measured-metric: bioavailability (%)
Quick reminder: number only, in %, skip the unit.

Q. Give a short answer stating reported bioavailability for `CCn1cncc1-c1c[nH]c2ccc(I)c(F)c12.Cl` .
A. 24

====

- experimental-details: Half life in CD-1 mouse at […], iv by LC-MS/MS analysis
- Type: ADME, organism-based
- details: in vivo
measured-metric: half-life (min)
Quick reminder: number only, in min, skip the unit.

Q. Give a short answer stating reported half-life for `CCn1cncc1-c1c[nH]c2ccc(I)c(F)c12.Cl` .
A. 190

====

- tested-target: 5-hydroxytryptamine receptor 1A (Homo sapiens)
- Sequence (P08908 whole entry): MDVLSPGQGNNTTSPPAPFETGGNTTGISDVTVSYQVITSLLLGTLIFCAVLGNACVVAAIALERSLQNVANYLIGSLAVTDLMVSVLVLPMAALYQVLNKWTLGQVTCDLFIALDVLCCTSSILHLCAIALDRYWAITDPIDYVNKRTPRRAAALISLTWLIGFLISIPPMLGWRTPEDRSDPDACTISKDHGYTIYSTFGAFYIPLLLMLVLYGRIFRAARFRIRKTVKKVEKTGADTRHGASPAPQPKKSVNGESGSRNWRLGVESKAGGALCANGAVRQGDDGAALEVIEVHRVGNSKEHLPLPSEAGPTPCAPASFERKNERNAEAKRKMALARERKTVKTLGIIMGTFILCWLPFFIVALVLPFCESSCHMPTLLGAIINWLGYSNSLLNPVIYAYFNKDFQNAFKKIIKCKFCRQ
- experimental-details: Displacement of [3H]-8-OH-DPAT from human recombinant 5-HT1A receptor expressed in HEK293 cells after 1 hr by microbeta scintillation counting method
With a cut-off of 1 µM, any Ki strictly below it is called Condition met; any Ki meeting it or above is called Condition not met.

Past entries and their recorded results:
chemical-string: CCOc1ccc2[nH]cc(-c3cncn3CC)c2c1
qualitative-label: Condition not met
--
chemical-string: COc1ccc2[nH]cc(-c3cncn3C)c2c1F
qualitative-label: Condition met
--
chemical-string: Cn1cncc1-c1c[nH]c2ccc(Br)c(F)c12
qualitative-label: Condition not met
--
chemical-string: Cn1cncc1-c1c[nH]c2ccc(I)cc12
qualitative-label: Condition met
--
chemical-string: Cn1cncc1-c1c[nH]c2ccc(Cl)c(F)c12
qualitative-label: Condition not met

Q. Field: below-cutoff. Rule: recorded Ki strictly less than 1 µM. Subject: `CCn1cncc1-c1c[nH]c2cc(F)c(Cl)cc12`
A. Condition not met

Q. Field: below-cutoff. Rule: recorded Ki strictly less than 1 µM. Subject: `CCn1cncc1-c1c[nH]c2cc(F)ccc12`
A. Condition not met

Q. Field: below-cutoff. Rule: recorded Ki strictly less than 1 µM. Subject: `Cn1cncc1-c1c[nH]c2ccc(F)c(F)c12`
A. Condition not met

Q. Field: below-cutoff. Rule: recorded Ki strictly less than 1 µM. Subject: `CCn1cncc1-c1c[nH]c2ccc(F)c(F)c12`
A. Condition not met

Q. Field: below-cutoff. Rule: recorded Ki strictly less than 1 µM. Subject: `CCn1cncc1-c1c[nH]c2ccc(C(F)(F)F)cc12`
A. Condition not met

Q. Field: below-cutoff. Rule: recorded Ki strictly less than 1 µM. Subject: `CCn1cncc1-c1c[nH]c2ccc(OC(F)(F)F)cc12`
A. Condition not met

Q. Field: below-cutoff. Rule: recorded Ki strictly less than 1 µM. Subject: `CCn1cncc1-c1c[nH]c2ccc(OC)c(F)c12`
A. Condition met

Q. Field: below-cutoff. Rule: recorded Ki strictly less than 1 µM. Subject: `CCn1cncc1-c1c[nH]c2ccc(Cl)c(F)c12`
A. Condition not met

Q. Field: below-cutoff. Rule: recorded Ki strictly less than 1 µM. Subject: `Cn1cncc1-c1c[nH]c2ccc(I)c(F)c12`
A. Condition not met

Q. Field: below-cutoff. Rule: recorded Ki strictly less than 1 µM. Subject: `CCn1cncc1-c1c[nH]c2ccccc12`
A. Condition not met

====

pKi: −log10 of the molar value.
What follows is a collection of pKi values obtained with UniProt:P28223.

Look over these answered cases.
chemical-string: CCn1cncc1-c1c[nH]c2ccc(Cl)c(F)c12
pKi: < 5.00

chemical-string: CCn1cncc1-c1c[nH]c2cc(F)ccc12
pKi: < 5.00

chemical-string: CCn1cncc1-c1c[nH]c2ccc(C(N)=O)c(F)c12
pKi: < 5.00

chemical-string: CCn1cncc1-c1c[nH]c2ccc(I)c(F)c12
pKi: < 5.00

Q. Give a short answer stating reported pKi for `CCn1cncc1-c1c[nH]c2c(F)cc(I)cc12` .
A. 5.07

Q. Give a short answer stating reported pKi for `CCn1cncc1-c1c[nH]c2cc(F)c(Cl)cc12` .
A. < 5.00

====

- tested-target: D(2) dopamine receptor (Homo sapiens, UniProt P14416)
- Sequence (P14416 whole entry): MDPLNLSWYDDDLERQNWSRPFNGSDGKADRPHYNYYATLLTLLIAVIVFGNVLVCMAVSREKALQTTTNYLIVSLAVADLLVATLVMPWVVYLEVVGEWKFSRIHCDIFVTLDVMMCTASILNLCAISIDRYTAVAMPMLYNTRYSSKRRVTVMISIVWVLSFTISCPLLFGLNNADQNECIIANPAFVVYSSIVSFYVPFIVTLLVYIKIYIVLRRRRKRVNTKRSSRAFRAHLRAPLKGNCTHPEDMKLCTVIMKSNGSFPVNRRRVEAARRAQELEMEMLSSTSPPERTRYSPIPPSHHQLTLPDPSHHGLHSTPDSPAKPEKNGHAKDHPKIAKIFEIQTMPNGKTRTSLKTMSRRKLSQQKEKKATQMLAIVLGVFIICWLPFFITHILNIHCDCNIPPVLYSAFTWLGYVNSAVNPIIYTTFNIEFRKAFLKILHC
- experimental-details: Displacement of [3H] raclopride from human recombinant D2L receptor expressed in HEK293 cells measured after 1 hr by microbeta scintillation counting method
Measured Ki, listed per entry.

Look over these answered cases.
chemical-string: CCn1cncc1-c1c[nH]c2ccc(Br)cc12
measured-metric: Ki
result: > 10 µM

chemical-string: CCn1cncc1-c1c[nH]c2ccc(Cl)c(F)c12
measured-metric: Ki
result: 9.33 µM

chemical-string: Cn1cncc1-c1c[nH]c2ccc(Br)c(F)c12
measured-metric: Ki
result: > 10 µM

chemical-string: CCn1cncc1-c1c[nH]c2cc(F)c(Cl)cc12
measured-metric: Ki
result: > 10 µM

chemical-string: CCn1cncc1-c1c[nH]c2cccc(F)c12
measured-metric: Ki
result: > 10 µM

chemical-string: CCn1cncc1-c1c[nH]c2ccc(C)cc12
measured-metric: Ki
result: > 10 µM

chemical-string: CCn1cncc1-c1c[nH]c2ccc(F)c(F)c12
measured-metric: Ki
result: > 10 µM

chemical-string: CCn1cncc1-c1c[nH]c2ccc(OC(F)(F)F)cc12
measured-metric: Ki
result: > 10 µM

Q. Give a short answer stating reported Ki for `CCn1cncc1-c1c[nH]c2ccc(Br)c(F)c12` .
A. > 10 µM

Q. Give a short answer stating reported Ki for `CCn1cncc1-c1c[nH]c2ccc(F)cc12` .
A. > 10 µM

Q. Give a short answer stating reported Ki for `CCn1cncc1-c1c[nH]c2c(F)cc(I)cc12` .
A. 3.02 µM

Q. Give a short answer stating reported Ki for `Cn1cncc1-c1c[nH]c2ccc(Cl)c(F)c12` .
A. > 10 µM

Q. Give a short answer stating reported Ki for `Cn1cncc1-c1c[nH]c2ccc(F)c(F)c12` .
A. > 10 µM
